Values compiled from ChEMBL document CHEMBL6078730.

target: Phosphatidylinositol 4,5-bisphosphate 3-kinase catalytic subunit alpha isoform (Homo sapiens); assay: Inhibition of PI3K alpha (unknown origin) using PIP2 as substrate preincubated for 10 mins followed by substrate addition and measured after 1 hrs by colorimetric analysis
Sequence (P42336 whole entry, canonical isoform): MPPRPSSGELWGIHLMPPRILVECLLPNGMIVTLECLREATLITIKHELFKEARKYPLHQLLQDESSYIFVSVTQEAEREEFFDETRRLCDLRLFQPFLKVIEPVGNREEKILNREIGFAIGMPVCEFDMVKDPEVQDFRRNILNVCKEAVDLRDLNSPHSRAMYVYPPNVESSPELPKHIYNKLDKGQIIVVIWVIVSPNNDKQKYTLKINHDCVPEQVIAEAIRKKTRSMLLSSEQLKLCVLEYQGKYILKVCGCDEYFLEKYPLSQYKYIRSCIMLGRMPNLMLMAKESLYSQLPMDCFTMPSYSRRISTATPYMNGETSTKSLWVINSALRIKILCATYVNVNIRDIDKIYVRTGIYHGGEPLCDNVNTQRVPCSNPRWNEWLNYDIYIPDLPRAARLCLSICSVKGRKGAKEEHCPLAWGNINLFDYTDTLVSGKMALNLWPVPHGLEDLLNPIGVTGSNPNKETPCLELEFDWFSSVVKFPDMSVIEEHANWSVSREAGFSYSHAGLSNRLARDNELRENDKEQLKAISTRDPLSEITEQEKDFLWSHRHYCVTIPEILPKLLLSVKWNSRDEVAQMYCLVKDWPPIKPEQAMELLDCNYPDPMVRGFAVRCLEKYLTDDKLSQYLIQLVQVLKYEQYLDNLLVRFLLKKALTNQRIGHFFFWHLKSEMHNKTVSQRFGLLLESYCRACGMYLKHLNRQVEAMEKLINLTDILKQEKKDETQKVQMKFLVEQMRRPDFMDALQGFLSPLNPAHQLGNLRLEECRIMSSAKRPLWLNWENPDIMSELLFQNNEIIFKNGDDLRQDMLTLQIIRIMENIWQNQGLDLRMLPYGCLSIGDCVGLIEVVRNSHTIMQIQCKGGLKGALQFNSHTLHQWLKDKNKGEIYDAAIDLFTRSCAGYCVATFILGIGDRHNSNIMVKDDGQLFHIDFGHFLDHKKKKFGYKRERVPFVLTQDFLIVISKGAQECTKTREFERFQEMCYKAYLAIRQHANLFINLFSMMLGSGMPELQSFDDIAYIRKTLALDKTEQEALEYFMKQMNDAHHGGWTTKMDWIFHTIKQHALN
assay_endpoint: IC50 (nM)
// note: answer is a bare numeric in nM

Exercise: Input "O=c1[nH]c(=S)[nH]c2nc(-c3ccc(Cl)cc3)ccc12" , output reported IC50.
Key: 632

###

test: Cytotoxicity against human MCF-10A cells assessed as reduction in cell viability at 10 uM incubated for 24 hrs by MTT assay; format: toxicity, cell-based
assay_endpoint: IC50 at 24 h (µg/mL)
// note: answer is a bare numeric in µg/mL

Exercise: Input "O=c1[nH]c(=S)[nH]c2nc(-c3ccc(Cl)cc3)ccc12" , output reported IC50 at 24 h.
Key: 422

###

Assign log10(IC50) to each entry below.
test system: T47D; assay: Antiproliferative activity against human T47D cells assessed as inhibition of cell proliferation incubated for 24 hrs by MTT assay; assay type: functional, cell-based
All values: log10 IC50 [µg/mL].

Exercise: Input "Cc1ccc(-c2ccc3c(=O)[nH]c(=S)[nH]c3n2)cc1" , output reported log10(IC50).
Key: 1.26

Exercise: Input "O=c1[nH]c(=S)[nH]c2nc(-c3ccc(Cl)cc3)ccc12" , output reported log10(IC50).
Key: 0.16

Exercise: Input "O=c1[nH]c(=S)[nH]c2nc(-c3ccc([N+](=O)[O-])cc3)ccc12" , output reported log10(IC50).
Key: 1.34

Exercise: Input "COc1ccc(-c2ccc3c(=O)[nH]c(=S)[nH]c3n2)cc1" , output reported log10(IC50).
Key: 1.72

Exercise: Input "O=c1[nH]c(=S)[nH]c2nc(-c3ccccc3)ccc12" , output reported log10(IC50).
Key: 1.21

Exercise: Input CS(=O)(=O)N1CCN(Cc2cc3nc(-c4cccc5[nH]ncc45)nc(N4CCOCC4)c3s2)CC1 [PICTILISIB] , output reported log10(IC50).
Key: 0.41

Exercise: Input "O=c1[nH]c(=S)[nH]c2nc(-c3ccc(Br)cc3)ccc12" , output reported log10(IC50).
Key: 0.98

Exercise: Input "O=c1[nH]c(=S)[nH]c2nc(-c3ccc(F)cc3)ccc12" , output reported log10(IC50).
Key: 0.78

###

molecular target: Phosphatidylinositol 4,5-bisphosphate 3-kinase catalytic subunit gamma isoform (Homo sapiens); assay: Inhibition of PI3K gamma (unknown origin) using PIP2 as substrate preincubated for 10 mins followed by substrate addition and measured after 1 hrs by colorimetric analysis
Sequence (P48736 whole entry, canonical isoform): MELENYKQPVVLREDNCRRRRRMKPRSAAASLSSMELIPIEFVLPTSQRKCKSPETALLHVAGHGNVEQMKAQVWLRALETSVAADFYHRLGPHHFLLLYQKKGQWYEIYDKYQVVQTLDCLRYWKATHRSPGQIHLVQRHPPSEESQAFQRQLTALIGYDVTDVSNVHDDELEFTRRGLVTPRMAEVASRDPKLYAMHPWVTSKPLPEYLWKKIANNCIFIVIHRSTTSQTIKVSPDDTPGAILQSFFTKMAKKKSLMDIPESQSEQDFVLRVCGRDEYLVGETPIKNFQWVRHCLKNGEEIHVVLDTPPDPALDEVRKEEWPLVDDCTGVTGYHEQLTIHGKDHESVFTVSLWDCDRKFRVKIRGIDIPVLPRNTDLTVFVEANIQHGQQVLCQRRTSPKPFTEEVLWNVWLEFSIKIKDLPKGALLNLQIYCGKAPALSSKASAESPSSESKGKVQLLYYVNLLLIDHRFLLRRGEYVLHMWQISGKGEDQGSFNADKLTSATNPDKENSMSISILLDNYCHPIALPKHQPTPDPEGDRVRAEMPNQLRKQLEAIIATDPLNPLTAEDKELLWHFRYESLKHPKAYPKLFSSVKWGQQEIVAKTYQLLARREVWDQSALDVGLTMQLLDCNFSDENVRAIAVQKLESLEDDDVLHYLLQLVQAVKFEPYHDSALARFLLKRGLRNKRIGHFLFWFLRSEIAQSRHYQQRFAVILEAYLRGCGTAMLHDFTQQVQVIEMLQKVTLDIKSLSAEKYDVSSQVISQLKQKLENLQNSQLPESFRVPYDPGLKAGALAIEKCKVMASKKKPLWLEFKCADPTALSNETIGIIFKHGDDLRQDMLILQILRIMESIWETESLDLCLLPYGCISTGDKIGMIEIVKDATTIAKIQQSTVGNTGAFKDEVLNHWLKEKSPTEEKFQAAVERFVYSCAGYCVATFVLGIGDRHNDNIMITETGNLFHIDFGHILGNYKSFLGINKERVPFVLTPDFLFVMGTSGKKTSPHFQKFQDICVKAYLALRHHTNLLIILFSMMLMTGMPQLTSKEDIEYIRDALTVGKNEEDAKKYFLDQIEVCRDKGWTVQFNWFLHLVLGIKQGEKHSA
assay_endpoint: pIC50
Remember, pIC50 is on a log scale: it is -log10 of the molar concentration.

Exercise: Input "O=c1[nH]c(=S)[nH]c2nc(-c3ccc(Cl)cc3)ccc12" , output reported pIC50.
Key: 5.67
